- targetOrTestSystem: NDM-1 (Klebsiella pneumoniae, UniProt C7C422)
- Sequence (C7C422 29-270 limits assumed): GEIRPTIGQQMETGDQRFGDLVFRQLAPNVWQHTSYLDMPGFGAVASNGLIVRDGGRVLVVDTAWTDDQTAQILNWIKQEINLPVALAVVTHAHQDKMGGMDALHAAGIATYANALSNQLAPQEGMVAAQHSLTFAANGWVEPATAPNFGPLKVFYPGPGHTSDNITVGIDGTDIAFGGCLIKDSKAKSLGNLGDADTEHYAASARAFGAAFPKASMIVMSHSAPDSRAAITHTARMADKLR
- protocolSummary: Inhibitory activity on MBL, fluorescent substrate FC-5
- Assay type: biochemical
- assayContext: read-out: Inhibitory activity on MBL NDM-1 (IC50 class)
pIC50: −log10 of the molar value.
endpoint: pIC50

- O=C(O)c1c(Cn2cc3c(n2)CNC3)ccc2c1OB(O)C=C2: 4.00 to 6.00
- N#Cc1cnn(Cc2ccc3c(c2C(=O)O)OB(O)CC3)c1: 6.00 to 8.00
- Cc1nccn1Cc1ccc2c(c1C(=O)O)OB(O)CC2: 4.00 to 6.00
- NS(=O)(=O)c1ccc(-c2cn(Cc3ccc4c(c3C(=O)O)OB(O)CC4)nn2)cc1: 6.00 to 8.00
- O=C(O)c1c(Cn2cc3c(n2)CNC3)ccc2c1OB(O)[C@H]1C[C@@H]21: 6.00 to 8.00
- NC1CN(C(=O)c2cnn(Cc3ccc4c(c3C(=O)O)OB(O)CC4)c2)C1: 6.00 to 8.00
- O=C(O)c1c(CNc2nncs2)ccc2c1OB(O)CC2 [Comparative example 1 compound 64, reference compound]: 4.00 to 6.00
- NC(=O)N1Cc2cn(Cc3ccc4c(c3C(=O)O)OB(O)CC4)nc2C1: 6.00 to 8.00
- N=C(N)NCCCc1cn(Cc2ccc3c(c2C(=O)O)OB(O)CC3)nn1: 4.00 to 6.00
- O=C(O)c1c(Cn2ccc3cncnc32)ccc2c1OB(O)CC2: 6.00 to 8.00
- NC(=O)c1cnn(Cc2ccc3c(c2C(=O)O)OB(O)CC3)c1: 6.00 to 8.00
- NC1(c2cnn(Cc3ccc4c(c3C(=O)O)OB(O)CC4)c2)CC1: 4.00 to 6.00
- NS(=O)(=O)NCc1cnn(Cc2ccc3c(c2C(=O)O)OB(O)CC3)c1: 6.00 to 8.00
- N=C(N)N1Cc2cnn(Cc3ccc4c(c3C(=O)O)OB(O)CC4)c2C1: 6.00 to 8.00
- O=C(O)c1c(Cn2cc3c(n2)CNC3)ccc2c1OB(O)CC2 [Compound 56]: 6.00 to 8.00
- CO[C@H]1Cc2ccc(Cn3cc(CN)cn3)c(C(=O)O)c2OB1O: 6.00 to 8.00
- N#Cc1cccn1Cc1ccc2c(c1C(=O)O)OB(O)CC2: 4.00 to 6.00
- N=C(N)NCc1cnn(Cc2ccc3c(c2C(=O)O)OB(O)CC3)c1: 6.00 to 8.00
- O=C(O)c1c(Cn2cc(CN3CCCC3)nn2)ccc2c1OB(O)CC2: 4.00 to 6.00
- O=C(O)c1c(Cn2cc(C(F)(F)F)cn2)ccc2c1OB(O)CC2: 6.00 to 8.00
- NC1CCC(c2cn(Cc3ccc4c(c3C(=O)O)OB(O)CC4)nn2)CC1 (stereo not drawn): 6.00 to 8.00
- O=C(O)c1c(CN2C[C@H](O)CC2=O)ccc2c1OB(O)CC2: 6.00 to 8.00
- O=C(O)c1c(Cn2ccnc2)ccc2c1OB(O)CC2: 6.00 to 8.00
- C[C@H]1Cc2ccc(Cn3ccnn3)c(C(=O)O)c2OB1O: 6.00 to 8.00

###

- targetOrTestSystem: NDM-1 (Klebsiella pneumoniae, UniProt C7C422)
- protocolSummary: Inhibitory activity on MBL, fluorescent substrate FC-5
- Type: biochemical
- assayContext: read-out: Inhibitory activity on MBL NDM-1 (IC50 class)
pIC50: −log10 of the molar value.
endpoint: pIC50

* N#Cc1ccn(Cc2ccc3c(c2C(=O)O)OB(O)CC3)c1 | 6.00 to 8.00
* O=C(O)c1c(Cn2cccn2)ccc2c1OB(O)CC2 | 6.00 to 8.00
* O=C(O)c1c(Cn2cc(F)cn2)ccc2c1OB(O)CC2 | 6.00 to 8.00
* NCc1cn(Cc2ccc3c(c2C(=O)O)OB(O)CC3)nn1 | 4.00 to 6.00
* NC(=O)[C@@H]1CC[C@@H]2CN1C(=O)N2OS(=O)(=O)O [Avibactam, reference compound] | < 4.00
* N=C(N)Nc1cnn(Cc2ccc3c(c2C(=O)O)OB(O)CC3)c1 | 6.00 to 8.00
* N=C(N)NCCc1cnn(Cc2ccc3c(c2C(=O)O)OB(O)CC3)c1 | 4.00 to 6.00
* CC(N)c1cnn(Cc2ccc3c(c2C(=O)O)OB(O)CC3)c1 (centres unmarked) | 4.00 to 6.00
* CN1Cc2cn(Cc3ccc4c(c3C(=O)O)OB(O)CC4)nc2C1 | 6.00 to 8.00
* CO[C@H]1Cc2ccc(Cn3ccnn3)c(C(=O)O)c2OB1O | 6.00 to 8.00
* C[C@]1(Cn2ccnn2)[C@H](C(=O)O)N2C(=O)C[C@H]2S1(=O)=O [Tazobactam, reference compound] | < 4.00
* CC(C)(N)C#Cc1cnn(Cc2ccc3c(c2C(=O)O)OB(O)CC3)c1 | 4.00 to 6.00
* O=C(O)c1c(Cn2cncn2)ccc2c1OB(O)CC2 | 6.00 to 8.00
* NCc1cnn(Cc2ccc3c(c2C(=O)O)OB(O)[C@@H](Sc2nncs2)C3)c1 | 6.00 to 8.00
* NS(=O)(=O)Nc1cnn(Cc2ccc3c(c2C(=O)O)OB(O)CC3)c1 | 6.00 to 8.00
* NCCCc1cn(Cc2ccc3c(c2C(=O)O)OB(O)CC3)nn1 | 4.00 to 6.00
* NCc1ccc(-c2cn(Cc3ccc4c(c3C(=O)O)OB(O)CC4)nn2)cc1 | 6.00 to 8.00
* NS(=O)(=O)NCCc1cn(Cc2ccc3c(c2C(=O)O)OB(O)CC3)nn1 | 6.00 to 8.00
* N[C@H]1CC(=O)N(Cc2ccc3c(c2C(=O)O)OB(O)CC3)C1 | 4.00 to 6.00
* Nc1ncc(-c2cn(Cc3ccc4c(c3C(=O)O)OB(O)CC4)nn2)cn1 | 6.00 to 8.00

###

Quick reference for IC50 among some compounds
- targetOrTestSystem: VIM-1 (Pseudomonas aeruginosa, UniProt A0A0F7KYQ8)
- protocolSummary: Inhibitory activity on MBL, fluorescent substrate FC-5
- Type: biochemical
- assayContext: read-out: Inhibitory activity on MBL VIM-1 (IC50 class)
endpoint: IC50

- NS(=O)(=O)N1Cc2cn(Cc3ccc4c(c3C(=O)O)OB(O)CC4)nc2C1 [Compound 57]: 10 to 1000 nM
- O=C(O)c1c(Cn2ccnn2)ccc2c1OB(O)CC2 [Compound 2]: 1000 to 100000 nM
- NCCNc1cnn(Cc2ccc3c(c2C(=O)O)OB(O)CC3)c1 [Compound 33]: 1000 to 100000 nM
- N=C(N)NCCc1cn(Cc2ccc3c(c2C(=O)O)OB(O)CC3)nn1 [Compound 10]: 1000 to 100000 nM
- O=C(O)c1c(Cn2cc3c(n2)CNC3)ccc2c1OB(O)[C@H]1C[C@@H]21 [Compound 54]: 1000 to 100000 nM

###

- targetOrTestSystem: IMP-1 (Serratia marcescens)
- Sequence (P52699 19-246 limits assumed): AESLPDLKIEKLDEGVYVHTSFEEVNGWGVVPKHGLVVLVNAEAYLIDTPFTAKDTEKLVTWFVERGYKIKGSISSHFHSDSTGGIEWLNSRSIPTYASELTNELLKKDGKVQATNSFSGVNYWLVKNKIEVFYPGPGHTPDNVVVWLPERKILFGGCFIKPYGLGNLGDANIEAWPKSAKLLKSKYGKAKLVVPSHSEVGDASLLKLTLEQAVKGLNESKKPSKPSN
- protocolSummary: Inhibitory activity on MBL, fluorescent substrate FC-5
- Format: biochemical
- assayContext: read-out: Inhibitory activity on MBL IMP-1 (IC50 class)
pIC50: −log10 of the molar value.
endpoint: pIC50

- CC(N)c1cnn(Cc2ccc3c(c2C(=O)O)OB(O)CC3)c1 (centres unmarked): 4.00 to 6.00
- N[C@H]1CC(=O)N(Cc2ccc3c(c2C(=O)O)OB(O)CC3)C1: 4.00 to 6.00
- CC(C)(N)C#Cc1cnn(Cc2ccc3c(c2C(=O)O)OB(O)CC3)c1: 4.00 to 6.00
- NC1CN(C(=O)c2cnn(Cc3ccc4c(c3C(=O)O)OB(O)CC4)c2)C1: 6.00 to 8.00
- NS(=O)(=O)c1ccc(-c2cn(Cc3ccc4c(c3C(=O)O)OB(O)CC4)nn2)cc1: 6.00 to 8.00
- N=C(N)N1CC(c2cn(Cc3ccc4c(c3C(=O)O)OB(O)CC4)nn2)C1: 6.00 to 8.00
- O=C(O)c1c(Cn2cc3c(n2)CNC3)ccc2c1OB(O)[C@H]1C[C@@H]21: 4.00 to 6.00
- O=C(O)c1c(Cn2cc3c(n2)CNC3)ccc2c1OB(O)CC2 [Compound 56]: 4.00 to 6.00
- NS(=O)(=O)NCCc1cn(Cc2ccc3c(c2C(=O)O)OB(O)CC3)nn1: 4.00 to 6.00
- NC1CCC(c2cn(Cc3ccc4c(c3C(=O)O)OB(O)CC4)nn2)CC1 (centres unmarked): 4.00 to 6.00
- O=C(O)c1c(Cn2cc(-c3ccccc3)nn2)ccc2c1OB(O)CC2: 4.00 to 6.00

###

Catalogue of pIC50 values
- targetOrTestSystem: VIM-1 (Pseudomonas aeruginosa, UniProt A0A0F7KYQ8)
- protocolSummary: Inhibitory activity on MBL, fluorescent substrate FC-5
- Type: biochemical
- assayContext: read-out: Inhibitory activity on MBL VIM-1 (IC50 class)
pIC50: −log10 of the molar value.
endpoint: pIC50

• O=C(O)c1c(Cn2ccc3cncnc32)ccc2c1OB(O)CC2 = 4.00 to 6.00
• NC(=O)[C@@H]1CC[C@@H]2CN1C(=O)N2OS(=O)(=O)O [Avibactam, reference compound] = < 4.00
• NCc1cn(Cc2ccc3c(c2C(=O)O)OB(O)CC3)nn1 = 4.00 to 6.00
• O=C(O)c1c(Cn2cccn2)ccc2c1OB(O)CC2 = 4.00 to 6.00
• NCc1ccn(Cc2ccc3c(c2C(=O)O)OB(O)CC3)n1 = 6.00 to 8.00
• O=C(O)c1c(Cn2cc(C(F)(F)F)cn2)ccc2c1OB(O)CC2 = 4.00 to 6.00
• O=C(O)c1c(Cn2cc3c(n2)CNC3)ccc2c1OB(O)C=C2 = 4.00 to 6.00
• O=C(O)c1c(Cn2ccnc2)ccc2c1OB(O)CC2 = 4.00 to 6.00
• O=C(O)c1c(Cn2cc3c(n2)CNC3)ccc2c1OB(O)[C@@H]1C[C@H]21 = 4.00 to 6.00
• O=C(O)c1c(CN2C[C@H](O)CC2=O)ccc2c1OB(O)CC2 = 6.00 to 8.00
• NS(=O)(=O)Nc1cnn(Cc2ccc3c(c2C(=O)O)OB(O)CC3)c1 = 4.00 to 6.00
• O=C(O)c1c(Cn2ncc3ccccc32)ccc2c1OB(O)CC2 = 6.00 to 8.00
